experimental_protocol: Cytotoxicity against human HEK293T cells assessed as cell viability upto 40 uM relative to control
Type: toxicity, cell-based, HEK-293T
condition_summary: read-out: Activity
test_readout: viability at up to 40 µM

> print(dat)
                                 smiles.str  reported.result
1  CCNCc1ccc2[nH]cc(C[C@@H](C)[C@H]3CC[C@H]4[C@@H]5CC[C@@H]6C[C@H](O)CC[C@]6(C)[C@H]5CC[C@]34C)c2c1            > 70%

----------
// values below are reported MBC
Test system: Staphylococcus aureus
experimental_protocol: Bactericidal activity against Staphylococcus aureus CGMCC1.8721 assessed as reduction in bacterial growth
Type: functional
test_readout: MBC (µg/mL)

> print(dat)
                                 smiles.str  reported.result
1  CNCc1ccc2[nH]cc(C[C@@H](C)[C@H]3CC[C@H]4[C@@H]5CC[C@@H]6C[C@H](O)CC[C@]6(C)[C@H]5CC[C@]34C)c2c1                2
2  CCNCc1ccc2[nH]cc([C@H]3CC[C@H]4[C@@H]5CC[C@H]6C[C@@H](O)CC[C@]6(C)[C@H]5CC[C@]34C)c2c1                8
3  CCNCc1ccc2[nH]cc([C@H]3CC[C@H]4[C@@H]5CCc6cc(O)ccc6[C@H]5CC[C@]34C)c2c1                2
4  CCNCc1ccc2[nH]cc(C[C@@H](C)[C@H]3CC[C@H]4[C@@H]5CC[C@@H]6C[C@H](O)CC[C@]6(C)[C@H]5CC[C@]34C)c2c1                2

----------
System: Staphylococcus aureus
experimental_protocol: Antibacterial activity against methicillin-resistant Staphylococcus aureus ATCC 43300 assessed as reduction in bacterial growth
Format: functional
// values below are reported MIC
test_readout: MIC (µg/mL)

> print(dat)
                                  smiles.str  test.readout  reported.result
 1  COc1ccc(NCc2ccc3[nH]cc(C[C@@H](C)[C@H]4CC[C@H]5[C@@H]6CC[C@@H]7C[C@H](O)CC[C@]7(C)[C@H]6CC[C@]45C)c3c2)cc1           MIC               16
 2  COc1ccc2[nH]cc([C@H]3CC[C@H]4[C@@H]5CCc6cc(O)ccc6[C@H]5CC[C@]34C)c2c1           MIC               32
 3  CCNCc1ccc2[nH]cc([C@H]3CC[C@H]4[C@@H]5CC[C@H]6C[C@@H](O)CC[C@]6(C)[C@H]5CC[C@]34C)c2c1           MIC                4
 4  C[C@H](Cc1c[nH]c2ccc(CN3CCSCC3)cc12)[C@H]1CC[C@H]2[C@@H]3CC[C@@H]4C[C@H](O)CC[C@]4(C)[C@H]3CC[C@]12C           MIC               16
 5  COc1ccc2[nH]cc(C[C@@H](C)[C@H]3CC[C@H]4[C@@H]5[C@H](O)C[C@@H]6C[C@H](O)CC[C@]6(C)[C@H]5C[C@H](O)[C@]34C)c2c1           MIC               32
 6  C[C@H](Cc1c[nH]c2ccc(CN3CCOCC3)cc12)[C@H]1CC[C@H]2[C@@H]3CC[C@@H]4C[C@H](O)CC[C@]4(C)[C@H]3CC[C@]12C           MIC               32
 7  COc1ccc2[nH]cc(C[C@@H](C)[C@H]3CC[C@H]4[C@@H]5[C@H](O)C[C@@H]6C[C@H](O)CC[C@]6(C)[C@H]5CC[C@]34C)c2c1           MIC               32
 8  CCNCc1ccc2[nH]cc(C[C@@H](C)[C@H]3CC[C@H]4[C@@H]5CC[C@@H]6C[C@H](O)CC[C@]6(C)[C@H]5CC[C@]34C)c2c1           MIC                1
 9  C[C@H](Cc1c[nH]c2ccc(CO)cc12)[C@H]1CC[C@H]2[C@@H]3CC[C@@H]4C[C@H](O)CC[C@]4(C)[C@H]3CC[C@]12C           MIC               32
10  C[C@H](Cc1c[nH]c2ccc(CN3CCC(N4CCCC4)CC3)cc12)[C@H]1CC[C@H]2[C@@H]3CC[C@@H]4C[C@H](O)CC[C@]4(C)[C@H]3CC[C@]12C           MIC               16
11  C[C@H](Cc1c[nH]c2ccc(CN3CC(O)C3)cc12)[C@H]1CC[C@H]2[C@@H]3CC[C@@H]4C[C@H](O)CC[C@]4(C)[C@H]3CC[C@]12C           MIC                8
